# test system: T1, human SIRPA_V2 protein (human, UniProt P78324 31-504)
# T1 construct: Expressed on 293α cells from pcDNA3.2 V5-DEST or pFLAG V5-DEST (FLAG-tagged) vectors; also called human SIRPA Variant 2; ECD variant (full-length, amino acids 1 to 504)
# T1 sequence (P78324 other isoform, or with tags, fused parts or gaps limits assumed): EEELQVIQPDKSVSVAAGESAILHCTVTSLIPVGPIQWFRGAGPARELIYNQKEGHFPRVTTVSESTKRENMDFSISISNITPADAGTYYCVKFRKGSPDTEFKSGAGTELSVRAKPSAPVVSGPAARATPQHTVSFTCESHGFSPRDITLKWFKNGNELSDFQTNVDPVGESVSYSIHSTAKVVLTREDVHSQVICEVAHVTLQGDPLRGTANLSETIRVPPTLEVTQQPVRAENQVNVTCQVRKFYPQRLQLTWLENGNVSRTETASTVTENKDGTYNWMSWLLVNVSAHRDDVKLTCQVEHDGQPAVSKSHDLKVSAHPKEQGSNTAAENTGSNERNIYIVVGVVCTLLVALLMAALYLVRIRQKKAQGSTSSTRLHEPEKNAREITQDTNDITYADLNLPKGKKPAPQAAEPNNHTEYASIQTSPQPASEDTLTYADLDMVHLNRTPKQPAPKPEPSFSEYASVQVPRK
# assay remarks: blocking cell-based ELISA: peroxidase-labeled CD47-Fc (1 µg/mL) on 293α cells expressing SIRPA_V2; y axis = CD47-Fc signal relative to no antibody (100)
readout: IC50 (read off the curve)

Recorded IC50 (read off the curve) (binder humanized anti-SIRPA antibody hD13_H1L4 (antibody, human IgG4 S228P, kappa, F234A L235A, V domains shown, hH1 heavy chain (IgG4proFALA) and hL4 kappa light chain; also called hD13_HIL4; hD13_HIL4h) VH: QVQLVESGGGVVQPGRSLRLSCAASGFTFSDYGMIWVRQAPGKGLEWVASISSSSSYIYYADSVKGRFTISRDNSKNRLYLQMNSLRAEDTAVYYCARRYYGFNYPFDYWGQGTMVTVSS VL: DTVLTQSPDSLAVSLGQRATINCGASKSVRTYMHWYQQKPGQQPKLLIYSASNLEAGVPSRFSGSGSGTDFTLTISSLQAEDVAVYYCQQSNEPPYTFGQGTKVEIKR ): ~0.7 µg/mL

Recorded IC50 (read off the curve) (binder humanized anti-SIRPA antibody hD13_H2L2 (antibody, human IgG4 S228P, kappa, F234A L235A, V domains shown, hH2 heavy chain (IgG4proFALA) and hL2 kappa light chain; also called H2L2 antibody) VH: EVQLVESGGGVVQPGRSLRLSCAASGFTFSDYGMIWVRQAPGKGLEWVASISSSSSYIYYADSVKGRFTISRDNSKNTLYLQMNSLRAEDTAVYYCARRYYGFNYPFDYWGQGTMVTVSS VL: AIQLTQSPSSLSASVGQRVTITCGASKSVRTYMHWYQQKPGKAPKLLIYSASNLEAGVPSRFSGSGSGTDFTLTISSLQPEDFATYYCQQSNEPPYTFGQGTKLEIKR ): ~0.8 µg/mL

Recorded IC50 (read off the curve) (binder humanized anti-SIRPA antibody hD13_H1L3 (antibody, human IgG4 S228P, kappa, F234A L235A, V domains shown, hH1 heavy chain (IgG4proFALA) and hL3 kappa light chain; also called hD13_HIL3; HIL3 antibody) VH: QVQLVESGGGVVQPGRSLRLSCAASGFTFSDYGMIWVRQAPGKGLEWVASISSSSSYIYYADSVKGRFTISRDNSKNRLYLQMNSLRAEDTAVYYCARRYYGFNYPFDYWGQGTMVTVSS VL: DTQLTQSPSSLSASVGQRVTITCGASKSVRTYMHWYQQKPGKQPKLLIYSASNLEAGVPSRFSGSGSGTDFTLTISSLQPEDFATYYCQQSNEPPYTFGQGTKLEIKR ): ~0.6 µg/mL

Recorded IC50 (read off the curve) (binder humanized anti-SIRPA antibody hD13_H2L3 (antibody, human IgG4 S228P, kappa, F234A L235A, V domains shown, hH2 heavy chain (IgG4proFALA) and hL3 kappa light chain; also called H2L3 antibody) VH: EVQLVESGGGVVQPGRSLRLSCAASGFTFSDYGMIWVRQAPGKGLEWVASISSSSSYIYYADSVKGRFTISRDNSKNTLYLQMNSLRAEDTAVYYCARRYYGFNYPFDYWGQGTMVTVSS VL: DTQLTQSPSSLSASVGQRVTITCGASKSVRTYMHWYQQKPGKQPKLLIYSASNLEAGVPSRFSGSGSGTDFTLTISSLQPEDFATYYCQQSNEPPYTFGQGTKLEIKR ): ~0.7 µg/mL
